Quick reference for protein stability index among some variants
B1: ELF3 (parent)
chain: LSKEYWDCLEGKKSKHAPRGTHLW

Variants of: B1
Method: protein stability index of a GFP-peptide fusion (GPS, HEK-293T) (PSI 1-6); higher = more stable;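 also: lentivirally expressed fusions sorted by FACS into six bins by GFP to DsRed ratio, PSI derived from sequencing read proportions per bin multiplied by bin number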
Condition Info: c terminus: a fixed tail appended
Please give only the number in your answer, with no unit.

LSKEYWDCLEAKKSKHAPRGTHLW [G11A]
2.91
LSKEYWDCLRGKKSKHAPRGTHLW [E10R]
1.86
LSKEYWDCLEGKKSKHAPIGTHLW [R19I]
2.38
LSKEYWDCLEGKKWKHAPRGTHLW [S14W]
3.31
LSKEYWDCLEGKKSKGAPRGTHLW [H16G]
2.88

// query protein stability index value for entry LSKEYWDCLEGKKSKHAPRGCHLW [T21C]
2.22

Query LSKEYWDELEGKKSKHAPRGTHLW [C8E] next
2.85

Subsequent entry: LSKEYWDCLEGKKSKHAPRGTHYW [L23Y]
2.85

Repeat with LSKEYWDCLEGKTSKHAPRGTHLW [K13T]
2.37

Next: LSKEYWDCLEGKKSKHAPRGTHLI [W24I]
2.94

Same read-out for LSKEYWDCLEGKKSAHAPRGTHLW [K15A] ?
2.86
